Source listed as paper PMC10119423.

Listing of recorded pIC50 by entry.
study_target: PERK (Mus musculus, UniProt Q9Z2B5)
Construct: Immortalized MEFs were pretreated for 30 min with increasing concentrations of GSK’157 and the indicated compounds and stimulated with tunicamycin; endogenous in cells
Sequence (Q9Z2B5 29-1114): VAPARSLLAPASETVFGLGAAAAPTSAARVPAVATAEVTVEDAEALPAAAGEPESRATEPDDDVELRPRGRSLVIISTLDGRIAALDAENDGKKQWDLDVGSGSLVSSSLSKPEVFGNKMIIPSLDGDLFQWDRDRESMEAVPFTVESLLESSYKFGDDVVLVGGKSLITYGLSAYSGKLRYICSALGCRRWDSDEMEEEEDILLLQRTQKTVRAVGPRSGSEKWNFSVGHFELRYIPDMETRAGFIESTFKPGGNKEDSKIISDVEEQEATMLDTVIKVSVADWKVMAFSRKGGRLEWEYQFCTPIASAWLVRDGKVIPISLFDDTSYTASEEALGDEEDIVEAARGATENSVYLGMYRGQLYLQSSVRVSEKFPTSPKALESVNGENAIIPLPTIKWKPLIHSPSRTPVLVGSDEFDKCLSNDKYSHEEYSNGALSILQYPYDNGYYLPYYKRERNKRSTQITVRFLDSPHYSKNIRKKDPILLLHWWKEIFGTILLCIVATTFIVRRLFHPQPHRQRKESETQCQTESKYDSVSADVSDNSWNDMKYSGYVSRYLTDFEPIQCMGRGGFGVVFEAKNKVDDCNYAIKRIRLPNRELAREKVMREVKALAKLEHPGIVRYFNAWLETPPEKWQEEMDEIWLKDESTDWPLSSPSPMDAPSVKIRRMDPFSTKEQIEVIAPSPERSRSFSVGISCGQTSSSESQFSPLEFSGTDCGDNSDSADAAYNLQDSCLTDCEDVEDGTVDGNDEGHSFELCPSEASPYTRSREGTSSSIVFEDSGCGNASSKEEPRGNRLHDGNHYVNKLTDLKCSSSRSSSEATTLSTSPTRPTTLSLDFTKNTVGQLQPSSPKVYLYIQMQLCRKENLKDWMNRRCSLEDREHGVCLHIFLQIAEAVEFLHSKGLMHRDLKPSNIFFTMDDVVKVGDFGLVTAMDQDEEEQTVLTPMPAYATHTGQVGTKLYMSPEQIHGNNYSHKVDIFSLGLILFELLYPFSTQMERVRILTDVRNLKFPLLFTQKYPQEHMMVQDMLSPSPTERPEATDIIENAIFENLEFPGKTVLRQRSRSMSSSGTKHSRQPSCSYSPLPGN
assay_remarks: PERK autophosphorylation by Western blot in tunicamycin-stimulated immortalized MEFs
condition_info: immortalized MEFs, 30 min pretreatment, tunicamycin 1 μg/ml for 4 h; PERK autophosphorylation; read-out: PERK inhibition (IC50 estimated from a Western blot)
pIC50: −log10 of the molar value.
quantity_measured: pIC50

{"columns": ["compound", "quantity_measured", "test_result"],
 "data": [
  ["Cn1cc(-c2ccc3c(c2F)CCN3C(=O)Cc2ccc(F)cn2)c2c(N)ncnc21 [Compound 18]", "pIC50", "< 5.30"],
  ["Cn1cc(-c2ccc3c(c2F)CCN3C(=O)Cc2ccc(C(F)(F)F)cc2)c2c(N)ncnc21 [Compound 34]", "pIC50", "≤ 5.30"],
  ["Cn1cc(-c2ccc3c(c2F)CCN3C(=O)Cc2ccc(O)cn2)c2c(N)ncnc21 [Compound 26]", "pIC50", "≤ 5.30"],
  ["Cn1cc(-c2ccc3c(c2F)CCN3C(=O)Cc2ccc(C3CC3)cn2)c2c(N)ncnc21 [Compound 24]", "pIC50", "< 5.30"],
  ["Cn1cc(-c2ccc3c(c2F)CCN3C(=O)Cc2ccncc2)c2c(N)ncnc21 [Compound 27]", "pIC50", "< 5.30"],
  ["Cn1cc(-c2ccc3c(c2F)CCN3C(=O)Cc2ccc(Br)cn2)c2c(N)ncnc21 [Compound 20]", "pIC50", "< 5.30"],
  ["Cn1cc(-c2ccc3c(c2F)CCN3C(=O)Cc2ccc(C(F)(F)F)cn2)c2c(N)ncnc21 [Compound 22]", "pIC50", "< 5.30"],
  ["Cn1cc(-c2ccc3c(c2F)CCN3C(=O)Cc2ccc(Cl)cn2)c2c(N)ncnc21 [Compound 19]", "pIC50", "< 5.30"],
  ["Cn1cc(-c2ccc3c(c2F)CCN3C(=O)Cc2ccc(Cl)cc2)c2c(N)ncnc21 [Compound 31]", "pIC50", "5.30 to 6.00"]
]}
